For each entry below, report its inhibition value.
- assayed.target: Ephrin type-B receptor 4 (Homo sapiens) (UniProt P54760)
- Sequence (whole entry): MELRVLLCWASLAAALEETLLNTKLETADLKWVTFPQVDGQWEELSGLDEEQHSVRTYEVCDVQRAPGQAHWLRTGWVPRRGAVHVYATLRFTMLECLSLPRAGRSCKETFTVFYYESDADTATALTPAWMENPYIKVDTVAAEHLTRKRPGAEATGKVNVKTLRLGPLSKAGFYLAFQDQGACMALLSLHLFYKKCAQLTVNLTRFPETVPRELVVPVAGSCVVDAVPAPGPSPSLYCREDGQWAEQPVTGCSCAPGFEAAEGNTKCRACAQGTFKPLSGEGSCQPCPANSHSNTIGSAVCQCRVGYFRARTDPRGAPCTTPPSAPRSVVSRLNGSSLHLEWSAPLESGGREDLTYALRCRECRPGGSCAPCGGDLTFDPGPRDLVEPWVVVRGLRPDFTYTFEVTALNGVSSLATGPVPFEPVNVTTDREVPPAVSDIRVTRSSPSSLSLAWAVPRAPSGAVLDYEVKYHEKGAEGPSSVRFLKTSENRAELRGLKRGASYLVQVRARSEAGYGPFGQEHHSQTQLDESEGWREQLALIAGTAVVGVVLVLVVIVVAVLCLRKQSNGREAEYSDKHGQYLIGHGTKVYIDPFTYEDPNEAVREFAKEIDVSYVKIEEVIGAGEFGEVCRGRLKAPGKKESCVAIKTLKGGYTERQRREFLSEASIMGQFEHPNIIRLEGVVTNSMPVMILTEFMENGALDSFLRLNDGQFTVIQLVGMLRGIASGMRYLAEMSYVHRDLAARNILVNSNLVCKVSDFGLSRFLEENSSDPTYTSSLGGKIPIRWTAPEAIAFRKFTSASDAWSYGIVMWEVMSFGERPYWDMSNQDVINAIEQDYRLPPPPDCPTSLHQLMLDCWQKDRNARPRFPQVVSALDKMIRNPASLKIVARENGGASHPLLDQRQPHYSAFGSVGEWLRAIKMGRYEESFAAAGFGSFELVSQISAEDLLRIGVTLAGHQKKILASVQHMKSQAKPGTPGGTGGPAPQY
- assay: Inhibition of EPHB4 (unknown origin) at 0.5 uM relative to control
Give bare numbers, in %.

1. CNC(=O)c1cc(Oc2ccc(NC(=O)c3nc(S(C)(=O)=O)sc3-c3ccc(F)cc3)cc2)ccn1 : 24

Quick batch: inhibition for everything below.
1. CNC(=O)c1cc(Oc2ccc(NC(=O)c3nc(SC)n(CCN(C)C)c3-c3ccc(F)cc3)cc2)ccn1
2. CNC(=O)c1cc(Oc2ccc(NC(=O)c3nc(SC)[nH]c3-c3ccc(F)cc3)cc2)ccn1

25
82
